Assignment: determine reported IC50 for the given binders.
Subject of test: beta-catenin (human)
Sequence (B6V8E6 146-665 limits assumed): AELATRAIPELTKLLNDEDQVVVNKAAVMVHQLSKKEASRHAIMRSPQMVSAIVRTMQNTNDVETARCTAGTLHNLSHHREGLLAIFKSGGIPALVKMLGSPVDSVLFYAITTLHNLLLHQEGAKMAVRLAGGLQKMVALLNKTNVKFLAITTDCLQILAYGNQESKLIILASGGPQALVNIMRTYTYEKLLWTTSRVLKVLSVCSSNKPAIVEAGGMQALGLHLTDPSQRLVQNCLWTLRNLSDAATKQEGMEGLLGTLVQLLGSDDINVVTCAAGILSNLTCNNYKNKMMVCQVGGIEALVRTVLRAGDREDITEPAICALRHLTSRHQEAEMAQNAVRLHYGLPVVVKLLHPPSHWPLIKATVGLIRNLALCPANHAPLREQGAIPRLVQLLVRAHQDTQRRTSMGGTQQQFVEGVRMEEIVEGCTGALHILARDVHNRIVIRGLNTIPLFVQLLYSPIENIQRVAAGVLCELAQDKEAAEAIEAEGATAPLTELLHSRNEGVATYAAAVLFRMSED
Run description: fluorescence polarization
*1 amine or outer side, *2 acyl side, *3 side chain or, on linkers, in order; H or OH if unused. Bridges are numbered along the chain shown (N, C = ends). Primed or numbered codes have the meaning given here. [ ]: non-standard residue; d: D form. PyrS2(6) = (S)-3-amino-1-((pent-4-en-1-yloxy)carbonyl)pyrrolidine-3-carboxylic acid, stapled with another olefin-containing amino acid residue through the olefin group, O=C(OCCCC=[*:3])N1CC[C@@](N[*:1])(C(=O)[*:2])C1; B5(4) = 2-amino-2-(pent-4-en-1-yl)hept-6-enoic acid, stapled through each of its two olefin groups with other olefin-containing amino acid residues, O=C(C(CCCC=[*:3])(CCCC=[*:4])N[*:1])[*:2]; PyrS2″ = (S)-3-amino-1-((pent-4-en-1-yloxy)carbonyl)pyrrolidine-3-carboxylic acid (olefin stapling residue), C=CCCCOC(=O)N1CC[C@@](N[*:1])(C(=O)[*:2])C1; PyrS2(3) = (S)-3-amino-1-((pent-4-en-1-yloxy)carbonyl)pyrrolidine-3-carboxylic acid, olefin residue, C=CCCCOC(=O)N1CC[C@@](N[*:1])(C(=O)[*:2])C1; PyrS2(5) = (S)-3-amino-1-((pent-4-en-1-yloxy)carbonyl)pyrrolidine-3-carboxylic acid, C=CCCCOC(=O)N1CC[C@@](N[*:1])(C(=O)[*:2])C1; B5″ = 2-amino-2-(pent-4-en-1-yl)hept-6-enoic acid (bis-olefin stapling residue), C=CCCCC(CCCC=C)(N[*:1])C(=O)[*:2]; B5(3) = 2-amino-2-(pent-4-en-1-yl)hept-6-enoic acid, two olefin arms, C=CCCCC(CCCC=C)(N[*:1])C(=O)[*:2]; TriAzLys″ = azidolysine residue closed into triazole staple, O=C([C@H](CCCCn1cc([*:3])nn1)N[*:1])[*:2]; 2F3MeF(3) = aromatic amino acid residue, Cc1cccc(C[C@H](N[*:1])C(=O)[*:2])c1F; 2F3MeF″ = aromatic residue, Cc1cccc(C[C@H](N[*:1])C(=O)[*:2])c1F; Phe(3-COOH) = N[C@@H](Cc1cccc(C(=O)O)c1)C(=O)O; 2F3MeF = Cc1cccc(C[C@H](N[*:1])C(=O)[*:2])c1F; Bta = N[C@@H](Cc1csc2ccccc12)C(=O)O; Lys(iPr) = CC(C)NCCCC[C@H](N)C(=O)O; αAllylPro = C=CC[C@@]1(C(=O)O)CCCN1; BztA = aromatic amino acid residue; tBuAla = CC(C)(C)C[C@H](N)C(=O)O; 3Thi = N[C@@H](Cc1ccsc1)C(=O)O; Cha = N[C@@H](CC1CCCCC1)C(=O)O; 2F3MeF(4) = Phe analogue; BztA″ = aromatic residue; TfeGA = not defined here; GlnR = not defined here; sAla = not defined here; PL3 = not defined here; B5 = not defined here; Aib = CC(C)(N)C(=O)O

[ask] For the binder Ac-[αAllylPro]D[tBuAla][B5(4)]D[Phe(3-COOH)]AAFK[PyrS2(6)][2F3MeF(4)][Bta][GlnR]A-NH2 (staple 1-4 (inferred); bridge 10-14; not fully specified (residue 10, bridges); printed as Ac-PL3-Asp-Npg-B5-Asp-3COOHF-Ala-Ala-Phe-Lys*3-PyrS2-2F3MeF-BztA-GlnR*3-Ala-NH2; reading uncertain; also: -CH=CH- in each staple reduced to -CH2-CH2-) [I-77] , give its reported IC50.
[reply] < 0.05 µM

[ask] For the binder Ac-[αAllylPro]D[tBuAla][B5(3)]D[Phe(3-COOH)]AAFK[PyrS2(3)][2F3MeF″][Bta][GlnR]A-NH2 (bridge 10-14; not fully specified (bridges); printed as Ac-PL3-Asp-Npg-B5-Asp-3COOHF-Ala-Ala-Phe-Lys*3-PyrS2-2F3MeF-BztA-GlnR*3-Ala-NH2; reading uncertain) [I-57] , give its reported IC50.
[reply] < 0.05 µM

[ask] For the binder Ac-[αAllylPro]N[Cha][B5″]DT[Lys(iPr)]AF[GlnR][PyrS2″]F[Bta]K-NH2 (bridge 10-14; reading uncertain; also: PL3-B5 and PyrS2 links not placed, printed as Ac-PL3-Asn-Cha-B5-Asp-Thr-iPrLys-Ala-Phe-GlnR*3-PyrS2-Phe-BztA-Lys*3-NH2) [I-150] , give its reported IC50.
[reply] > 1 µM

[ask] For the binder Ac-[PL3]D[tBuAla][B5(4)]D[Phe(3-COOH)]AAF[TriAzLys″][PyrS2″][3Thi][Bta][sAla]-NH2 (triazole 10-14; not fully specified (bridges); printed as Ac-PL3-Asp-Npg-B5-Asp-3COOHF-Ala-Ala-Phe-TriAzLys*3-PyrS2-3Thi-BztA-sAla*3-NH2; reading uncertain) [I-19] , give its reported IC50.
[reply] < 0.05 µM

[ask] For the binder Ac-[PL3]D[tBuAla][B5]D[Phe(3-COOH)][tBuAla]AFK[PyrS2″][2F3MeF(3)][BztA][GlnR]A-NH2 (staple 1-4 (inferred); bridge 10-14; not fully specified (residue 10, bridges); printed as Ac-PL3-Asp-Npg-B5-Asp-3COOHF-Npg-Ala-Phe-Lys*3-PyrS2-2F3MeF-BztA-GlnR*3-Ala-NH2; reading uncertain; also: Lys10 and GlnR14 marked *3) [I-99] , give its reported IC50.
[reply] < 0.05 µM

[ask] For the binder Ac-[PL3]D[tBuAla][B5(4)]D[Phe(3-COOH)]AAF[TriAzLys″][PyrS2″][2F3MeF][Bta][sAla]-NH2 (triazole 10-14; not fully specified (bridges); printed as Ac-PL3-Asp-Npg-B5-Asp-3COOHF-Ala-Ala-Phe-TriAzLys*3-PyrS2-2F3MeF-BztA-sAla*3-NH2; reading uncertain) [I-21] , give its reported IC50.
[reply] < 0.05 µM

[ask] For the binder Ac-[αAllylPro]D[tBuAla][B5(3)]D[Phe(3-COOH)][Aib]AFK[PyrS2(3)][2F3MeF″][Bta][GlnR]A-NH2 (bridge 10-14; not fully specified (bridges); printed as Ac-PL3-Asp-Npg-B5-Asp-3COOHF-Aib-Ala-Phe-Lys*3-PyrS2-2F3MeF-BztA-GlnR*3-Ala-NH2; reading uncertain) [I-69] , give its reported IC50.
[reply] < 0.05 µM

[ask] For the binder Ac-[αAllylPro]N[tBuAla][B5]D[Phe(3-COOH)][Aib]AFK[PyrS2″][2F3MeF″][BztA″][GlnR]LS-NH2 (bridge 10-14; not fully specified (bridges); printed as Ac-PL3-Asn-Npg-B5-Asp-3COOHF-Aib-Ala-Phe-Lys*3-PyrS2-2F3MeF-BztA-GlnR*3-Leu-Ser-NH2; reading uncertain; also: Lys10 and GlnR14 marked *3) [I-144] , give its reported IC50.
[reply] < 0.05 µM

[ask] For the binder Ac-[αAllylPro]D[tBuAla][B5(4)]D[TfeGA]AAFK[PyrS2(5)][2F3MeF][Bta][GlnR]V-NH2 (bridge 10-14; not fully specified (bridges); reading uncertain; also: Lys*3 and GlnR*3 marked *3) [I-129] , give its reported IC50.
[reply] < 0.05 µM

Values were extracted from patent US20260207704A1.
